Test system: BJ
assayExplanation: cells
Assay type: functional, cell-based
studyConditions: Homo sapiens
Activity calls are given as the source filed them.
propertyLabel: EC50

N#CC1=C(SCC(=O)c2ccccc2)N=C2CCCC(O)=C2C1c1ccco1 (stereo not given)	42.1 µM (inconclusive)

Query string: Param item = CCOc1cc(/C=C2\COc3ccccc3C2=O)cc(Br)c1OCC(=O)N(C)C ; retrieve measured EC50.
Result string: 8.64 µM (active)

Query string: Param item = Cc1ccc2cccc(NS(=O)(=O)c3ccccc3)c2n1 ; retrieve measured EC50.
Result string: 17.8 µM (active)

Query string: Param item = CCOc1ccccc1C1CC(=O)Nc2cc3c(cc21)OCCO3 (stereo not given) ; retrieve measured EC50.
Result string: 22.3 µM (active)

Query string: Param item = CN(Cc1cnc2nc(N)nc(N)c2n1)c1ccc(C(=O)N[C@@H](CCC(=O)O)C(=O)O)cc1 ; retrieve measured EC50.
Result string: < 0.46 µM (active)

====

testedSystem: Polyadenylate-binding protein 1 (Homo sapiens)
Sequence (P11940 whole entry): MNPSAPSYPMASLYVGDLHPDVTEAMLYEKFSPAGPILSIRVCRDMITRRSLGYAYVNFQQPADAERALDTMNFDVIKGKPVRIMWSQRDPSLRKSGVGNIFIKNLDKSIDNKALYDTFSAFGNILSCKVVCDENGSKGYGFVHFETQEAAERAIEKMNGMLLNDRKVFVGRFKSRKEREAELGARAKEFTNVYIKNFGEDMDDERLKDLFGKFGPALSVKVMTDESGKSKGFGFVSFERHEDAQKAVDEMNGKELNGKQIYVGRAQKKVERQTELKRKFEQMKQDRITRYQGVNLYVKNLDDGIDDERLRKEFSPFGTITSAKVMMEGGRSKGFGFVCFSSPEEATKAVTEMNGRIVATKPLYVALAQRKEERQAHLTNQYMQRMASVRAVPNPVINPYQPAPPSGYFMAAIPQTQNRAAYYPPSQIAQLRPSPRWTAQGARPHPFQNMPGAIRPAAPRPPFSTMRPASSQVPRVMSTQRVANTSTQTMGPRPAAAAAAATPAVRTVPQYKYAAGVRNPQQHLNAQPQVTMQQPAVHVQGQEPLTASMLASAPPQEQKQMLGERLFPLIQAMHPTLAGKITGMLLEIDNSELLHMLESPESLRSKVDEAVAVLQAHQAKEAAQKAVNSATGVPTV
assayExplanation: PABP1 MLLE–PAM2 binding inhibitor potency, dose response, biochemical, fluorescence polarization, FITC-PAM2 peptide (AID 602259)
Type: functional
studyConditions: read-out: IC50_Mean
The source made the active and inactive calls.
propertyLabel: IC50

Solved entries (count: 5):
Cc1ccc2c(c1)c1nnc(S)nc1n2CCc1ccccc1	> 66 µM (inactive)
O=C(CCCN1C(=O)CCC1=O)Nc1ccccc1F	> 66 µM (inactive)
CCc1nc(SCC(=O)c2ccccc2)c2ccccc2n1	> 66 µM (inactive)
COc1ccc(C(=S)N2CCN(c3ccccc3Cl)CC2)cc1OC	> 66 µM (inactive)
O=C(O)CN1C(=O)/C(=C2\SC(=S)N(C(Cc3ccccc3)C(=O)O)C2=O)c2ccccc21 (configuration not stated)	> 66 µM (inactive)

Query string: Param item = Cc1nnc(N2C(=O)c3oc4ccccc4c(=O)c3C2c2ccco2)s1 (configuration not stated) ; retrieve measured IC50.
Result string: > 66 µM (inactive)

Query string: Param item = Cc1nc2[nH]c(=S)[nH]c(=O)c2nc1C ; retrieve measured IC50.
Result string: > 66 µM (inactive)

Query string: Param item = Cc1nnc(O)c2c(NC(=O)CSc3c(Cl)cccc3Cl)oc(C)c12 ; retrieve measured IC50.
Result string: > 66 µM (inactive)

Query string: Param item = O=C(N/N=C/c1cc(Br)c(Br)o1)c1cccnc1 ; retrieve measured IC50.
Result string: 44.3 µM (inactive)

====

assayExplanation: Shn3 3'UTR reporter inhibitors, dose response, cell-based, Clone20 osteoblasts, firefly luciferase, cherry-picked (AID 624132);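 also: firefly luciferase luminescence from reporter carrying the Shn3 3'UTR in osteoblasts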
Assay type: functional
The source made the active and inactive calls. *1 amine or outer side, *2 acyl side, *3 side chain or, on linkers, in order; H or OH if unused. Where a SMILES comes first, the peptide text is derived from it. Bridges are numbered along the chain shown (N, C = ends). [ ]: non-standard residue; d: D form. ξ: configuration not given here. X1 = CC[C@H](CCC[C@@H](O)[C@@H](C)C(=O)O[C@H](C)[C@@H](C)C/C=C(C)/C(=C\C(=O)[*:1])OC)O[*:2]; NMeξIle = CC[C@H](C)C(NC)C(=O)O; NMeV = CN[C@H](C(=O)O)C(C)C; NMeS = CN[C@@H](CO)C(=O)O
This listing pairs compounds with measured AC50.

Solved entries (count: 7):
Cc1ccc(S(=O)(=O)NCc2ccncc2)cc1C	585 nM (active)
O=S(=O)(c1ccccc1)N1CCN(c2cc(-c3ccccc3)nc3ncnn23)CC1	1120 nM (active)
CC[C@@H]1CCC[C@@H](O)[C@@H](C)C(=O)O[C@H](C)[C@@H](C)C/C=C(C)/C(OC)=C\C(=O)N(C)C([C@@H](C)CC)C(=O)N(C)[C@@H](C(C)C)C(=O)N(C)[C@@H](COC)C(=O)N2CCC[C@H]2C(=O)N(C)[C@@H](C(C)C)C(=O)N2CCC[C@H]2C(=O)O1 (stereo partly drawn) ([NMeξIle][NMeV][NMeS](Me)P[NMeV]P; linker N-C via X1)	< 260 nM (active)
CCN1CCN(Cc2ccc(NC(=O)c3ccc(C)c(NC(=O)c4cnc5cc(C(F)(F)F)ccc5c4O)c3)cc2C(F)(F)F)CC1	3130 nM (active)
CC(C)(C)c1ccc(CN(Cc2ccccc2)C(c2ccccn2)c2nnnn2C(C)(C)C)cc1 (stereo not drawn)	13500 nM (active)
O=C(OCCOc1ccc(Cl)cc1)c1cc(S(=O)(=O)N2CCCCC2)ccc1N1CCOCC1	1970 nM (active)
CC/C(=C/c1ccccc1)c1cccc2[nH]c3c(OC)cccc3c12	32800 nM (active)

Query string: Param item = N#Cc1cc(-c2ccccc2)[nH]c1-c1nccc2ccccc12 ; retrieve measured AC50.
Result string: 3420 nM (active)

====

testedSystem: Type-1 angiotensin II receptor (Homo sapiens)
Sequence (P30556 whole entry): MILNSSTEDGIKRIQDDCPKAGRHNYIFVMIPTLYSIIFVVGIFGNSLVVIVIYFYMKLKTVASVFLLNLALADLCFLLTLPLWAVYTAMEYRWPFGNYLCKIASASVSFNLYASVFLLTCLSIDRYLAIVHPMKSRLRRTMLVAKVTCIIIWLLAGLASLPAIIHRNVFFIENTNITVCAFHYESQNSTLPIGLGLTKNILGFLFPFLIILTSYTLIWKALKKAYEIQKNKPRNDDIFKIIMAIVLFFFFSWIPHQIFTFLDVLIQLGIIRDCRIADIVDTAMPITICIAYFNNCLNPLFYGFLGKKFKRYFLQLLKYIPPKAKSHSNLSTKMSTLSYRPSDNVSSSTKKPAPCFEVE
assayExplanation: AT1 receptor antagonists, dose response, selectivity assay for APJ receptor antagonist project, cell-based, uHTS hits (AID 463214);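 also: antagonist potency against angiotensin II stimulated AT1 response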
Assay type: functional
Activity calls are given as the source filed them.
propertyLabel: IC50

Solved entries (count: 2):
C=C1C(=O)O[C@@H]2C[C@@H](C)[C@@H]3C=CC(=O)[C@@]3(C)[C@@H](OC(C)=O)[C@H]12	22 µM (not active)
Cc1ccc2cccc(NS(=O)(=O)c3ccccc3)c2n1	2.35 µM (active)

Query string: Param item = CSCCC(NC(=O)COc1ccccc1)C(=O)OCC(=O)c1cc2ccccc2o1 (stereo unspecified) ; retrieve measured IC50.
Result string: 31.2 µM (not active)

====

This listing pairs molecules with measured EC50.
testedSystem: Protein RecA (Mycobacterium tuberculosis, UniProt P9WHJ3)
assayExplanation: Fluorescence Cell-Free Homogeneous Dose Retest to Identify Inhibitors of RecA-Intein Splicing Activity. [Related pubchem assays (depositor defined):AID2097, AID2223, AID489010, AID492950]
Format: functional
The source made the active and inactive calls.

Solved entries (count: 4):
COc1ccc(-c2cc(=O)n(-c3ccc([N+](=O)[O-])cc3)[nH]2)cc1	2420 nM (active)
Cc1[nH]n(-c2ccccc2)c(=O)c1C(c1cccc([N+](=O)[O-])c1O)c1c(C)[nH]n(-c2ccccc2)c1=O	931 nM (active)
CCO/C(O)=C1\C(C)=NC(SCc2cc(O)[nH]n2)=C(C#N)C1c1cccs1 (stereo not given)	4990 nM (active)
Cn1c(SCC(=O)NCC2CCCO2)ncc(C(=O)Nc2ccc(Cl)cc2)c1=O (stereo not given)	1130 nM (active)

Alright, here's another molecule for you.
Query string: Param item = CS(=O)(=O)c1ccc(C(=O)OCC(=O)NC23CC4CC(CC(C4)C2)C3)cc1[N+](=O)[O-] ; retrieve measured EC50.
Result string: 1320 nM (active)

====

testedSystem: UniProt:Q9GZV3
Sequence (Q9GZV3 whole entry): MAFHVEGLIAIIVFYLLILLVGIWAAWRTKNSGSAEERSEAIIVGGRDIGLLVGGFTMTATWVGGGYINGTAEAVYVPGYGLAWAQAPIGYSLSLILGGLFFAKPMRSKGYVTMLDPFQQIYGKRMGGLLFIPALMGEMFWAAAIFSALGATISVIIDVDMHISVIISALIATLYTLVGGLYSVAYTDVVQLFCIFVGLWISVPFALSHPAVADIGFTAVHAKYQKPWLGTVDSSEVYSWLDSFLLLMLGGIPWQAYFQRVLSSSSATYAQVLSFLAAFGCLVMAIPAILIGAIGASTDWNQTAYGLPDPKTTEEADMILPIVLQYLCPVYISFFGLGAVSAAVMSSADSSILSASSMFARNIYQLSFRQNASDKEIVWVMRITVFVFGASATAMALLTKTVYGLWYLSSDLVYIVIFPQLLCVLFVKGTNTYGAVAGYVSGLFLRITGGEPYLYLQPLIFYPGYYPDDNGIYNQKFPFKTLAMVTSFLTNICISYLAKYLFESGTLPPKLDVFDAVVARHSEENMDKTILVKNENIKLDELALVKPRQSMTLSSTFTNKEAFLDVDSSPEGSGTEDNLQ
assayExplanation: CHT inhibitors, dose response, cell-based, 5-point CRC, membrane potential dye (AID 504840)
Type: functional
The source made the active and inactive calls.
propertyLabel: IC50

Solved entries (count: 4):
CCCC(=O)Nc1cccc(NC(=O)c2ccc([N+](=O)[O-])cc2Cl)c1	15.1 µM (active)
CC1=NC(C)(C)Cc2cc(C)c(C)cc21	13.2 µM (active)
Cc1nn2c(N3CCN(CCO)CC3)c3c(nc2c1-c1ccccc1)CCCC3	6.95 µM (active)
Cc1ccc(-n2cc(CN3CCN(Cc4nccn4C)CC3)c(-c3ccc(F)cc3)n2)cc1	10.1 µM (active)

Query string: Param item = O=C(NCCCN1CCOCC1)c1ccc2c(=O)n(-c3ccc(F)c(Cl)c3)c(=S)[nH]c2c1 ; retrieve measured IC50.
Result string: 11.5 µM (active)

====

This listing pairs compounds with measured IC50.
testedSystem: Rac GTPase-activating protein 1 (Homo sapiens)
Sequence (Q9H0H5 whole entry): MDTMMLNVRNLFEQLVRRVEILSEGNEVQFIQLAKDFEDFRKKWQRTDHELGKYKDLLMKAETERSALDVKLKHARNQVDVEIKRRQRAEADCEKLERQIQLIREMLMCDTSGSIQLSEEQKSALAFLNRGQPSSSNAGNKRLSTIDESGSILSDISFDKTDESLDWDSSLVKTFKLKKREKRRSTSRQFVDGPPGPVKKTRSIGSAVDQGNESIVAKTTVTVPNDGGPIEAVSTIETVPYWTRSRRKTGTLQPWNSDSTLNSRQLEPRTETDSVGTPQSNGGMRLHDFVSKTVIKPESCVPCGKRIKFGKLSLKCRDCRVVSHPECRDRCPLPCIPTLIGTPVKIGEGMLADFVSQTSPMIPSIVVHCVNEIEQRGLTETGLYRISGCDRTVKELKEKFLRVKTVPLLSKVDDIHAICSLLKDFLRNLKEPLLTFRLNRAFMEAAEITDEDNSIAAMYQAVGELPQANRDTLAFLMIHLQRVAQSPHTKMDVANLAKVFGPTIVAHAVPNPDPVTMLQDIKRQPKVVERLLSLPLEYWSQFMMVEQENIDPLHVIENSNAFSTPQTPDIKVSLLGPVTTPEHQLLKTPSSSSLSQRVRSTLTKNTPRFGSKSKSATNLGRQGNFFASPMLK
assayExplanation: MgcRacGAP GTPase-activating activity inhibitors, confirmation, biochemical, ADP Hunter fluorescence, primary and confirmatory (AID 624330)
Assay type: functional
The source made the active and inactive calls.

COc1cccc(Oc2c[nH]nc2-c2ccc(O)cc2O)c1	39.4 µM (active)
COc1cc2c(cc1OC)C1(CCCC1)C(N)=C2C#N	38 µM (active)
C/C(=N\Nc1nc2ccccc2[nH]1)c1ccc(Cl)s1	42 µM (active)

Query string: Form: Entry = COc1ccccc1OCC#CCN1CCCC(C)C1 (configuration not stated) | System = Rac GTPase-activating protein 1 (Homo sapiens) | IC50 = ____
Result string: 182 µM (active)

Query string: Form: Entry = Cc1cc(C)cc(NC(=O)C(NCCN2CCOCC2)c2ccccc2)c1 (configuration not stated) | System = Rac GTPase-activating protein 1 (Homo sapiens) | IC50 = ____
Result string: 48.4 µM (active)

Query string: Form: Entry = O=C1C=CC(=O)N1c1ccccc1N1C(=O)C=CC1=O | System = Rac GTPase-activating protein 1 (Homo sapiens) | IC50 = ____
Result string: 62.2 µM (active)

Query string: Form: Entry = COc1ccc(C=C2C(=O)c3ccccc3C2=O)cc1O | System = Rac GTPase-activating protein 1 (Homo sapiens) | IC50 = ____
Result string: 46.8 µM (active)

Query string: Form: Entry = Cc1cccc(C)c1OCCCCN1CCNCC1 | System = Rac GTPase-activating protein 1 (Homo sapiens) | IC50 = ____
Result string: 122 µM (active)

Query string: Form: Entry = CCOc1cc(/C=C2\CN(C)C/C(=C\c3ccc(O)c(OCC)c3)C2=O)ccc1O | System = Rac GTPase-activating protein 1 (Homo sapiens) | IC50 = ____
Result string: 38.9 µM (active)

Query string: Form: Entry = C=CCc1cc(Cl)ccc1OCCn1ccnc1 | System = Rac GTPase-activating protein 1 (Homo sapiens) | IC50 = ____
Result string: 139 µM (active)

Query string: Form: Entry = O=[N+]([O-])c1ccccc1OCCNCc1ccccc1 | System = Rac GTPase-activating protein 1 (Homo sapiens) | IC50 = ____
Result string: 153 µM (active)

Query string: Form: Entry = O=[N+]([O-])c1cccc(SSc2cccc([N+](=O)[O-])c2)c1 | System = Rac GTPase-activating protein 1 (Homo sapiens) | IC50 = ____
Result string: 53.9 µM (active)

Query string: Form: Entry = C=CCc1cc(/C=N/c2ccc(N3CCOCC3)cc2)cc(OCC)c1O | System = Rac GTPase-activating protein 1 (Homo sapiens) | IC50 = ____
Result string: 13.1 µM (active)

Value source: ChEMBL document CHEMBL1201862
